assayOverview: in vitro
testContext: human, microsomes
Description: Half life in human liver microsomes at 20 to 40 uM measured for 120 mins in presence of NADPH by RP-HPLC analysis
endpointName: half-life at 2 h, 40 µM

Challenge: Item under review: O=C(O)Cc1ccccc1Nc1c(Cl)cccc1Cl [DICLOFENAC] . Reported half-life at 2 h, 40 µM?
Response given: < 30 min

* * *

assayOverview: Primary phase half life in BALB/c mouse at 20 mg/kg, po measured for < 6 hrs by HPLC analysis
Assay type: ADME, organism-based
testContext: in vivo, read-out: alphat1/2 (converted)
endpointName: half-life (h)
Please reply with the bare figure in h and do not write the unit itself.

Challenge: Which value of half-life has been reported for `O=C(CCCCCCCCCCCCCCC[P+](c1ccccc1)(c1ccccc1)c1ccccc1)c1ccc(O)cc1O.[Br-]` in the records?
Response given: 1
